Cited source for all entries: PubChem BioAssay (NCI)

test system: NCI-H226 lung; assay: NCI tumour cell line growth inhibition, 48 h

# compound, studySystem, TGI
rows = [
    ("O=C1[C@@H]2C3SC(c4ccccc43)[C@@H]2C(=O)N1c1ccccc1", "NCI-H226 lung", "> 100 µM"),
    ("COc1ccc(C2CC(=O)CC(c3ccc(OC)cc3)C23C(=O)NC(=S)NC3=O)cc1 (stereo not given)", "NCI-H226 lung", "> 100 µM"),
    ("CN(C)c1nc(=NCc2cccs2)ss1", "NCI-H226 lung", "> 10 µM"),
    ("Cc1ncc(C(=O)Nc2ccc(CN3CCN(C)CC3)c(C(F)(F)F)c2)cc1C#Cc1cnc(N)c2ncccc12", "NCI-H226 lung", "24.3 µM"),
    ("NC(=S)NNC(=O)CCC(=O)Nc1ccc(Cl)cc1Cl", "NCI-H226 lung", "> 100 µM"),
]

* * *

test system: UO-31 renal; experiment: NCI tumour cell line growth inhibition, 48 h
# TGI listing for each entry below
outcomeMeasure: TGI (µM)

# molecule, valueUnit, qual, testResult
data = [
    ("C[C@H]1[C@H](C)CC[C@]2(C(=O)O)CC[C@]3(C)C(=CC[C@@H]4[C@@]5(C)CC[C@H](OC(=O)/C=C/c6ccc(O)cc6)C(C)(C)[C@@H]5CC[C@]43C)[C@H]12", "µM", "=", 29.8),
    ("C[C@]12CC[C@H](O)C=C1CC[C@@H]1[C@@H]2CC[C@]2(C)C(=N/O)/C(=C/c3ccncc3)C[C@@H]12", "µM", "=", 20.5),
    ("O=C(Cc1ccccc1)NNc1nc(NNC(=O)c2ccncc2)nc(Nc2ccccc2)n1", "µM", ">", 10),
    ("O=C(Nc1ccccc1)NS(=O)(=O)c1ccc(N2N=C3c4ccccc4CC3C2c2ccccn2)cc1 (centres undefined)", "µM", ">", 100),
    ("COc1ccc(OC)c(-c2nc3ccccc3c(=O)[nH]2)c1", "µM", ">", 100),
    ("NC(CSc1nc2ccccn2c1[N+](=O)[O-])C(=O)O (centres undefined)", "µM", "=", 8.54),
    ("Nc1nnc(N)n1NC(=O)C(=O)Nc1ccc([N+](=O)[O-])cc1", "µM", ">", 100),
    ("Cc1ccc(C(CC(=O)C(C)(C)CN2CCCCC2)SCCS(=O)(=O)O)cc1 (centres undefined)", "µM", "=", 65.3),
    ("O=C(O)CCCCCO", "µM", ">", 100),
]

* * *

tested on: TK-10 renal; experiment: NCI tumour cell line growth inhibition, 48 h
# TGI listing for each entry below

# molecule, TGI
data = [
    ("CO/N=C(/COc1c(-c2ccccc2)oc2ccccc2c1=O)c1ccc(OC)cc1", "> 100 µM"),
    ("COc1ccc(C2CC(c3ccc4ccccc4c3O)=NN2C(C)=O)cc1OC (stereo unspecified)", "> 100 µM"),
    ("COc1c(NC(=O)CC(C)=O)[c]([Hg][O]C(C)=O)c(OC)c(Cl)[c]1[Hg][O]C(C)=O", "25.3 µM"),
    ("COc1c(Cl)cc(S(=O)O)cc1Cl", "> 100 µM"),
    ("O=C(Cc1ccccc1)NNc1nc(NNC(=O)c2ccncc2)nc(Nc2ccccc2)n1", "> 10 µM"),
    ("Cc1cc2c(cc1C)C(=O)C1(C2)Cc2c(ccc(C)c2C)C1=O (stereo unspecified)", "> 100 µM"),
    ("CC#Cc1cc2c(cc1O)CC[C@@H]1[C@@H]2CC[C@]2(C)[C@@H](O)CC[C@@H]12", "> 91.3 µM"),
    ("COc1cc(S(=O)(=O)Nc2nc(-c3ccc(N)cc3)cs2)ccc1Cl", "> 100 µM"),
    ("CC(CO)(CO)Nc1ncnc2ccccc12", "> 100 µM"),
    ("CCO/C=N/C1=C(C#N)C(c2ccc(Cl)cc2)c2c(-c3ccccc3)nn(-c3ccccc3)c2O1 (stereo unspecified)", "14.2 µM"),
    ("Nc1ccn(C2CC(O)C(CO)O2)c(=O)n1 (stereo unspecified)", "> 5000 µM"),
    ("CCOC(=O)c1ccc(Nc2sc(C(=O)c3cccc([N+](=O)[O-])c3)c(N)c2C#N)cc1", "17.3 µM"),
    ("Cc1nc(-c2cc3c(ccc4ccccc43)oc2=O)cc2c1c(=O)oc1ccc3ccccc3c12", "> 100 µM"),
    ("COc1cc2nc(-c3ccccc3F)[nH]c(=O)c2cc1OC", "> 100 µM"),
    ("CCOC(=O)[C@H]1Nc2ccc(Cl)cc2[C@H]2OCC[C@@H]12", "> 100 µM"),
    ("COCOCC1CCCN1CN1CCC[C@H]1COCOC (stereo partly specified)", "> 100 µM"),
    ("CC(=O)OCC1OC(n2c(=O)n(-c3ccccc3)c(=O)c3cc(Br)cc(Br)c32)C(OC(C)=O)C(OC(C)=O)C1OC(C)=O (stereo unspecified)", "> 100 µM"),
    ("c1ccc(-c2nnc(Nc3ccc4c(c3)OCCO4)o2)c(NCc2ccncc2)c1", "> 81.8 µM"),
    ("Cc1ccc(C(CC(=O)C(C)(C)CN2CCCCC2)SCCS(=O)(=O)O)cc1 (stereo unspecified)", "86 µM"),
    ("CCN(CC)CCOC(=O)CCN1CC2CCC(CC2)C1", "> 100 µM"),
    ("COc1ccc([C@H]2C=C(c3cc(F)c(Cl)cc3Cl)NC(=S)N2)cc1", "> 100 µM"),
]
